Biological target: PGR (gene 5241) (UniProt P06401)
Sequence (P06401 whole entry, looked up): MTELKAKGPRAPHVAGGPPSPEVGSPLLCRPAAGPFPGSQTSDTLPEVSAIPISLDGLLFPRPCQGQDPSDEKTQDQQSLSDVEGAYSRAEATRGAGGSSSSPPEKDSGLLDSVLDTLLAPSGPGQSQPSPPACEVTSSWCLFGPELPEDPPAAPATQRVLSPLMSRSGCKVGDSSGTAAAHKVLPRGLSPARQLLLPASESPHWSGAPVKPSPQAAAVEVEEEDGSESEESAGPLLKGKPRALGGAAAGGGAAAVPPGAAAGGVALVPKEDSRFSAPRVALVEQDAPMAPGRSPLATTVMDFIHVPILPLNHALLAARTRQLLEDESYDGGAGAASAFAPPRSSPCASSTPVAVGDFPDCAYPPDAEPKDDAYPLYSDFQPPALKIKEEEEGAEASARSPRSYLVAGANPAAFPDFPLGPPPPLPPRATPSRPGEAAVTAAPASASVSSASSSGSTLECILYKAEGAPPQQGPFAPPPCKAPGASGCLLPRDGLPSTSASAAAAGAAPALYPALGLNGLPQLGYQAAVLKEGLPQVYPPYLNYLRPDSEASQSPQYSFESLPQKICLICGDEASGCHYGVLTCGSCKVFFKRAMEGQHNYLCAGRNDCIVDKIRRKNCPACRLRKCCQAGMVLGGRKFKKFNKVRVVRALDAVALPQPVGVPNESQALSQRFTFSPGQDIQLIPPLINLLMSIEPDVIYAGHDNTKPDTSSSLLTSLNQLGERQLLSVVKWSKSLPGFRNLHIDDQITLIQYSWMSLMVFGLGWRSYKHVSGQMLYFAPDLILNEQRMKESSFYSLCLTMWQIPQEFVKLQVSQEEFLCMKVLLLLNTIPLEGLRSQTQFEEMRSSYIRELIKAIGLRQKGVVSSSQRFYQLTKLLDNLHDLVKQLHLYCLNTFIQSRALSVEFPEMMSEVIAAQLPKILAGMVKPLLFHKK
Experiment: NVS_NR_hPR: NovaScreen (NVS) Nuclear Receptor Binding Assay for human Progestron Receptor (PR) (AID 2283360);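 also: active means loss of bound radioligand signal versus DMSO baseline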
Results filed as inconclusive are left out. Activity calls are given as the source filed them. The calls were made as follows: active = hit-call score of the fitted dose curve at least 0.9, where 1 is the maximum; inconclusive = response in the unintended direction; inactive = score below 0.9.
Please answer using one outcome listed in true (1) (active), false (0) (inactive)

Some solved cases for reference:
COCC(C)OCC(C)OCC(C)O (centres undefined) : false (0)
C[C@]12CC[C@@H]3c4ccc(O)cc4CC[C@H]3[C@@H]1CCC2=O : true (1)
CC1=CC(=O)/C(=C(/C)O)C(=O)O1 : false (0)

Hey, what did the test say about CCCCOC(=O)c1ccc(O)cc1 ?
false (0)
